So I've got a bunch of variants here, and I need their protein stability index values.
B1: ZNF8 (parent)
chain: KPYTCSVCGKSFSRTTCLFLHLRT

- Variants of: B1
- Protocol text: protein stability index of a GFP-peptide fusion (GPS, HEK-293T) (PSI 1-6); higher = more stable;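 further: lentivirally expressed fusions sorted by FACS into six bins by GFP to DsRed ratio, PSI derived from sequencing read proportions per bin multiplied by bin number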
- Details: c terminus: a fixed tail appended
Give only the figure.

**Query** Complete the entry with protein stability index for KPYTPSVCGKSFSRTTCLFLHLRT
**Result** 2.38

**Query** // fetch protein stability index given entry KPYTCSVCGKSFWRTTCLFLHLRT
**Result** 1.87

**Query** Find the measured protein stability index of KPYTCDVCGKSFSRTTCLFLHLRT and report it.
**Result** 2.28

**Query** Quote protein stability index reported for KPYECSVCGKSFSRTTCLFLHLRT please.
**Result** 1.77

**Query** Give the reported value of protein stability index for this record: KPYTCWVCGKSFSRTTCLFLHLRT
**Result** 1.66

**Query** For the variant KPYTCSVCGKSFSRTTCRFLHLRT , give its reported protein stability index.
**Result** 1.67

**Query** Supply recorded protein stability index for KPYTCRVCGKSFSRTTCLFLHLRT here.
**Result** 2.14

**Query** Tell me its protein stability index given KPYTCSVCGKPFSRTTCLFLHLRT as the entry.
**Result** 1.72

**Query** Determine its reported protein stability index: KPYTCSVCGKSFSRGTCLFLHLRT
**Result** 1.54

**Query** For the variant KPYTCSVCGKSFSRTTCLFLKLRT , report protein stability index.
**Result** 2.04

**Query** Please give measured protein stability index of the following entry: KCYTCSVCGKSFSRTTCLFLHLRT
**Result** 1.86

**Query** Please indicate protein stability index recorded for KPDTCSVCGKSFSRTTCLFLHLRT
**Result** 2.07

**Query** Give me measured protein stability index, please, for this variant: KPYYCSVCGKSFSRTTCLFLHLRT
**Result** 1.63

**Query** Consider the variant KPYTCSVCGKSFSRTTCLELHLRT and give its recorded protein stability index.
**Result** 2.57

**Query** Give me measured protein stability index, please, for this variant: KPYTCSVCGKSRSRTTCLFLHLRT
**Result** 1.62

**Query** Name the recorded protein stability index of the item KPYTCSVCGKTFSRTTCLFLHLRT in your answer.
**Result** 2.2

**Query** Tell us which protein stability index value is on record for KPYTCSVCGKSFSRTTHLFLHLRT
**Result** 2.04

**Query** # return recorded protein stability index for input KPYTCSVCGKSFSRTVCLFLHLRT
**Result** 1.68

**Query** State its protein stability index: LPYTCSVCGKSFSRTTCLFLHLRT
**Result** 2.27

**Query** Supply reported protein stability index belonging to this variant: KPYTCSVCGKSLSRTTCLFLHLRT
**Result** 1.83

**Query** Name the recorded protein stability index of the item KPYTCSVCGKSHSRTTCLFLHLRT in your answer.
**Result** 2.35

**Query** For KPYTCSVCGKSFSRTTQLFLHLRT , write its protein stability index.
**Result** 2.58

**Query** Specify reported protein stability index for the variant shown: KPYTCSVCGKSESRTTCLFLHLRT
**Result** 1.77

**Query** Specify protein stability index for KPYTCSVCGKSFSRTTCLDLHLRT and stop.
**Result** 2.79

**Query** Entry KPYTCSVCGKGFSRTTCLFLHLRT needs its protein stability index filled in; supply it.
**Result** 1.51

**Query** Entry KPYTCSVCGKSFSRTTCLNLHLRT needs its protein stability index filled in; supply it.
**Result** 2.36

**Query** Annotate the variant KPYTCSVCGKSFSRTTRLFLHLRT with its measured protein stability index.
**Result** 2.35

**Query** // fetch protein stability index given entry DPYTCSVCGKSFSRTTCLFLHLRT
**Result** 2.46

**Query** Name the recorded protein stability index of the variant listed here: KPHTCSVCGKSFSRTTCLFLHLRT
**Result** 2.46

**Query** Indicate its recorded protein stability index; the variant in question is KPYTCSVCGKSFSRTTMLFLHLRT
**Result** 2.13

**Query** // Input: KPYTCSVCGKDFSRTTCLFLHLRT . Output its protein stability index only.
**Result** 1.88

**Query** Provide one value: measured protein stability index of PPYTCSVCGKSFSRTTCLFLHLRT
**Result** 1.91

**Query** Query protein stability index for KPFTCSVCGKSFSRTTCLFLHLRT
**Result** 1.4

**Query** Fill in reported protein stability index for this entry: KPYTCSVCGKSFSRTTCLFLHLRC
**Result** 2.07

**Query** // Input: KPYTCSVCGKSFSRRTCLFLHLRT . Output its protein stability index only.
**Result** 2.58

**Query** Read the entry KPYTCSVCGKSCSRTTCLFLHLRT and write its reported protein stability index.
**Result** 1.54

**Query** Please look at this variant and report its protein stability index: KPYTCSVCGKSFSRTTCLFLHRRT
**Result** 2.34

**Query** Using the record for KPYTCSVCGGSFSRTTCLFLHLRT , state its measured protein stability index.
**Result** 2.24

**Query** Return protein stability index (reported value) for this variant: KPYTCSVCGKSFSRTTCLFLHLRE
**Result** 1.67

**Query** Determine from records and report protein stability index for KPRTCSVCGKSFSRTTCLFLHLRT
**Result** 1.76

**Query** Give the reported value of protein stability index for this record: KPYTCSVCGMSFSRTTCLFLHLRT
**Result** 2.88

**Query** Report protein stability index for KPYTNSVCGKSFSRTTCLFLHLRT
**Result** 2.43

**Query** Answer with the recorded protein stability index of KPYTCSVWGKSFSRTTCLFLHLRT only.
**Result** 2.5

**Query** Identify measured protein stability index associated with KPYTCSVCGKSFSRTTCLFLHLPT
**Result** 2.5

**Query** Return value of protein stability index for input KPYTCSVCGKSFSRTTDLFLHLRT , no commentary.
**Result** 3.67

**Query** For the variant KPYTCSVCGKSYSRTTCLFLHLRT , give its measured protein stability index value.
**Result** 2.15

**Query** Name the recorded protein stability index of the item KPYTCSVCGKSFSRTLCLFLHLRT in your answer.
**Result** 1.79

**Query** Consider the variant KPYTCSVCGKSFSRTTCLFLHLYT . State its measured protein stability index.
**Result** 1.84

**Query** Tell me its protein stability index given KPYTCSVCGKSFSRTMCLFLHLRT as the entry.
**Result** 1.98

**Query** Give protein stability index for KPYTCSVCGKSFSRTTLLFLHLRT
**Result** 2.39

**Query** Supply measured protein stability index of KPYTCSVCGKSFDRTTCLFLHLRT in your reply.
**Result** 1.94

**Query** In one line, give reported protein stability index of the entry KPYTCSVCGKSASRTTCLFLHLRT .
**Result** 1.76

**Query** Quote protein stability index reported for MPYTCSVCGKSFSRTTCLFLHLRT please.
**Result** 2.22

**Query** Indicate the recorded protein stability index value for this variant: KPYTCSACGKSFSRTTCLFLHLRT
**Result** 2.12
